assay: Aqueous solubility of compound (1); format: physicochemical; details: aqueous medium; substantially independent of pH over a relevant physiological range
reportedEndpoint: solubility

Req: Give me measured solubility, please, for this molecule: "CCCn1c(=O)c2[nH]c(-c3cnn(Cc4cccc(C(F)(F)F)c4)c3)nc2n(CC)c1=O"
Resp: < 1 µg/mL

----------
assay: Pharmacokinetics following peroral administration to dogs; parameters: species or system beagle dogs; conditions: dog, in vivo, po; 2 mg/kg peroral, fed male beagle dogs, 4% Soluplus in SGF pH 2.0
reportedEndpoint: half-life (h)
Numeric only. Scale: h

Req: Give me measured half-life, please, for this compound: "CCCn1c(=O)c2[nH]c(-c3cnn(Cc4cccc(C(F)(F)F)c4)c3)nc2n(CC)c1=O.O=C(O)/C=C/C(=O)O"
Resp: 14.8

----------
assay: Pharmacokinetics following peroral administration to dogs; parameters: species or system beagle dogs; details: dog, in vivo, oral; 5 mg/kg, 0.5% methylcellulose; read-out: AUC0-24
reportedEndpoint: AUC(0-t) (ng·h/mL)
Numeric only. Scale: ng·h/mL

Req: Give me measured AUC(0-t), please, for this molecule: "CCCn1c(=O)c2[nH]c(-c3cnn(Cc4cccc(C(F)(F)F)c4)c3)nc2n(CC)c1=O"
Resp: 796

----------
test: Pharmacokinetics following peroral administration to dogs; parameters: species or system beagle dogs; conditions: dog, in vivo, po; 10 mg/kg peroral, fed male beagle dogs, 4% Soluplus in SGF pH 2.0
reportedEndpoint: Cmax (ng/mL)
Numeric only. Scale: ng/mL

Req: Give me measured Cmax, please, for this molecule: CCCn1c(=O)c2[nH]c(-c3cnn(Cc4cccc(C(F)(F)F)c4)c3)nc2n(CC)c1=O.O=C(O)/C=C/C(=O)O [fumaric acid cocrystal]
Resp: 976

All figures here come from patent US20230365564A1.
